- Target of assay: UniProt:Q96GG9
Measured attribute: Ki (nM)
Express your answer in nM, writing the number without its unit.

Ki reading for COc1cc(-c2nc(SCc3ccc(Cl)cc3)nc(Sc3nnnn3C)c2C#N)cc(OC)c1OC : 8.26

====

- Target of assay: DCN1-like protein 3 (Homo sapiens)
- Sequence (Q8IWE4 whole entry): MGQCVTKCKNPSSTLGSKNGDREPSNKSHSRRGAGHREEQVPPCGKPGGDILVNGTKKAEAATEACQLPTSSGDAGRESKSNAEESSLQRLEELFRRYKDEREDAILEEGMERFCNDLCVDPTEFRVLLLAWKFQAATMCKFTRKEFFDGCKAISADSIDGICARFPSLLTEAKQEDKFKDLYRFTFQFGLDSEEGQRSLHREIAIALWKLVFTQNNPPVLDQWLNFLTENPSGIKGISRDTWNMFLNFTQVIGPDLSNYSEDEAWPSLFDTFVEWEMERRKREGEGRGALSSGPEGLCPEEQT
Measured attribute: pKi
Interpret pKi as the negative base-10 log of the concentration measured in mol/L.

pKi reading for COc1cc(-c2nc(SCc3ccc(Cl)cc3)nc(Sc3nnnn3C)c2C#N)cc(OC)c1OC : 3.41

====

- Assay comment: Cytotoxicity against Sprague-Dawley rat cardiac fibroblast by MTT assay
- Assay type: toxicity, cell-based, Fibroblast of cardiac tissue
- Condition context: cardiac fibroblasts
Measured attribute: IC50
Write the quantity with the unit trailing the number.

IC50 reading for COc1cc(-c2nc(SCc3cccc(C)c3)nc(Sc3nccs3)c2C#N)cc(OC)c1OC : 15.7 µM

IC50 reading for COc1cc(-c2nc(SCc3ccc4ccccc4c3)nc(Sc3nccs3)c2C#N)cc(OC)c1OC : 22.9 µM

IC50 reading for COc1cc(-c2nc(SCc3ccc4ccccc4c3)nc(Sc3nnnn3C)c2C#N)cc(OC)c1OC : 18.9 µM

IC50 reading for COc1cc(-c2nc(SCc3ccc4ccccc4c3)nc(Sc3nnnn3CCN(C)C)c2C#N)cc(OC)c1OC : 25.8 µM

IC50 reading for COc1cc(-c2nc(SCc3ccc(Cl)cc3)nc(Sc3nnnn3C)c2C#N)cc(OC)c1OC : 27.3 µM

IC50 reading for C#CCSc1nc(Sc2nccs2)c(C#N)c(-c2ccc(C)cc2)n1 : 12.6 µM

IC50 reading for COc1cc(-c2nc(SCc3ccc(C)cc3)nc(Sc3nnnn3CCN(C)C)c2C#N)cc(OC)c1OC : 26.1 µM

IC50 reading for COc1cc(-c2nc(SCc3ccc(C)cc3)nc(Sc3nccs3)c2C#N)cc(OC)c1OC : 6.15 µM

IC50 reading for COc1cc(-c2nc(SCc3ccc(C)cc3)nc(Sc3nnnn3C)c2C#N)cc(OC)c1OC : 9.97 µM

====

Measured attribute: pKi
Interpret pKi as the negative base-10 log of the concentration measured in mol/L.

COc1cc(-c2nc(SCc3ccc(Cl)cc3)nc(Sc3nnnn3C)c2C#N)cc(OC)c1OC tested on DCN1-like protein 5 (Homo sapiens, UniProt Q9BTE7) gave pKi: 4.54

====

Consider the following compounds; for each one, report its pIC50.
- Target of assay: DCN1-like protein 1 (Homo sapiens, UniProt Q96GG9)
- Sequence (Q96GG9 whole entry): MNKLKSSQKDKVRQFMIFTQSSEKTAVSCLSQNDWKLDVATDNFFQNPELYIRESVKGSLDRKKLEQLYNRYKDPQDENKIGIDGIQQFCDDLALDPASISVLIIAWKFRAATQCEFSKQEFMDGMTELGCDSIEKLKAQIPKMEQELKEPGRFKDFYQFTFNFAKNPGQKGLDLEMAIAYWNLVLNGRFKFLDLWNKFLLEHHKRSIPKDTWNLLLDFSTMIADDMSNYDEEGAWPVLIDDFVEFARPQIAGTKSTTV
Interpret pIC50 as the negative base-10 log of the concentration measured in mol/L.

pIC50 reading for COc1cc(-c2nc(SCc3ccc(C(F)(F)F)cc3)nc(Sc3nnnn3CCN(C)C)c2C#N)cc(OC)c1OC : 7.22

pIC50 reading for Cc1ccc(CSc2nc(Sc3nccs3)c(C#N)c(-c3ccccc3)n2)cc1 : 5.55

pIC50 reading for COc1cc(-c2nc(SCc3cccc(C(F)(F)F)c3)nc(Sc3nnnn3C)c2C#N)cc(OC)c1OC : 7.59

pIC50 reading for C#CCSc1nc(Sc2nnnn2C)c(C#N)c(-c2cc(OC)c(OC)c(OC)c2)n1 : 9.60

pIC50 reading for COc1cc(-c2nc(SCc3cccc(C)c3)nc(Sc3nccs3)c2C#N)cc(OC)c1OC : 8.26

pIC50 reading for COC(=O)c1ccc(CSc2nc(Sc3nccs3)c(C#N)c(-c3cc(OC)c(OC)c(OC)c3)n2)cc1 : 8.27

pIC50 reading for COc1cc(-c2nc(SCc3ccoc3C(F)(F)F)nc(Sc3nccs3)c2C#N)cc(OC)c1OC : 6.35

pIC50 reading for COc1cc(-c2nc(SCc3ccc(Cl)cc3)nc(Sc3nnnn3CCN(C)C)c2C#N)cc(OC)c1OC : 7.60

pIC50 reading for COc1cc(-c2nc(SCc3ccccc3)nc(Nc3cccc(Cl)c3)c2C#N)cc(OC)c1OC : 5.62

pIC50 reading for COc1cc(-c2nc(SCc3ccc(C)cc3)nc(Sc3nnnn3C)c2C#N)cc(OC)c1OC : 8.54

pIC50 reading for COc1cc(-c2nc(SCc3cccc(C(F)(F)F)c3)nc(Sc3nccs3)c2C#N)cc(OC)c1OC : 7.53

pIC50 reading for Cc1ccc(CSc2nc(Sc3nccs3)c(C#N)c(-c3ccc(Cl)cc3)n2)cc1 : 7.18

pIC50 reading for Cc1ccc(CSc2nc(Sc3nccs3)c(C#N)c(-c3cccc(C)c3)n2)cc1 : 5.77

pIC50 reading for COc1ccc(CSc2nc(Sc3nccs3)c(C#N)c(-c3cc(OC)c(OC)c(OC)c3)n2)cc1 : 5.59

pIC50 reading for COc1cc(-c2nc(SCc3ccc4ccccc4c3)nc(Sc3nnnn3C)c2C#N)cc(OC)c1OC : 8.21

pIC50 reading for COc1cc(-c2nc(SCc3ccc(C(C)(C)C)cc3)nc(Sc3nnnn3C)c2C#N)cc(OC)c1OC : 5.91

pIC50 reading for COc1cc(-c2nc(SCc3ccc(Cl)cc3)nc(Sc3nnnn3C)c2C#N)cc(OC)c1OC : 8.02

pIC50 reading for COc1cc(-c2nc(SCc3ccccc3)nc(Sc3nnnn3C)c2C#N)cc(OC)c1OC : 7.44

pIC50 reading for COc1cc(-c2nc(SCc3ccc(C(F)(F)F)cc3)nc(Sc3nnnn3C)c2C#N)cc(OC)c1OC : 7.54

pIC50 reading for COc1cc(-c2nc(SCC(=O)NC(=O)Nc3ccccc3)nc(Sc3nccs3)c2C#N)cc(OC)c1OC : 5.21

pIC50 reading for COc1cc(-c2nc(SCc3c(C)noc3C)nc(Sc3nccs3)c2C#N)cc(OC)c1OC : 6.38

pIC50 reading for C#CCSc1nc(Sc2nccs2)c(C#N)c(-c2ccc(C)cc2)n1 : 7.74
